Target: Ras farnesyl transferase (Rattus norvegicus, UniProt Q02293+Q04631)
Construct: endogenous in cells; host or cells: Rat2 fibroblasts transformed with C-Harvey-Ras, or with H-Ras carrying the K-Ras C-terminal polybasic lysine domain
Assay: in vivo (cellular) Ras farnesyl transferase inhibitory activity, Rat2 cells transformed with H-Ras fused with polybasic lysine domain of K-Ras
Format: cell-based
Settings: Rat2 cell line transformed with H-Ras substituted with polybasic lysine domain at C-terminus of K-Ras; concentration inhibiting 50% of farnesyl binding; read-out: K-Ras CIC50
Endpoint name: IC50

Answered cases to consult:
[
  {
    "Molecular string": "COCCN(C)C(=O)c1cn(Cc2cncn2CC2CCN(C(=O)OCc3ccc4ccccc4c3)CC2)cc1-c1cccc2ccccc12",
    "System": "Ras farnesyl transferase (Rattus norvegicus, UniProt Q02293+Q04631)",
    "IC50": "1 to 10 µM"
  },
  {
    "Molecular string": "COCCN(C)C(=O)c1cn(Cc2cncn2CC2CCN(S(C)(=O)=O)CC2)cc1-c1cccc2ccccc12",
    "System": "Ras farnesyl transferase (Rattus norvegicus, UniProt Q02293+Q04631)",
    "IC50": "10 to 50 µM"
  },
  {
    "Molecular string": "COCCN(C)C(=O)c1cn(Cc2cncn2CC2CCN(C(C)=O)CC2)cc1-c1cccc2ccccc12",
    "System": "Ras farnesyl transferase (Rattus norvegicus, UniProt Q02293+Q04631)",
    "IC50": "10 to 100 µM"
  },
  {
    "Molecular string": "COCCN(C)C(=O)c1cn(Cc2cncn2CC2CCN(C(=O)OC)CC2)cc1-c1cccc2ccccc12",
    "System": "Ras farnesyl transferase (Rattus norvegicus, UniProt Q02293+Q04631)",
    "IC50": "10 to 100 µM"
  },
  {
    "Molecular string": "COCCN(C)C(=O)c1cn(Cc2cncn2CC2CCNCC2)cc1-c1cccc2ccccc12",
    "System": "Ras farnesyl transferase (Rattus norvegicus, UniProt Q02293+Q04631)",
    "IC50": "1 to 10 µM"
  }
]

Please state, for each entry, its recorded IC50.
1. COCCN(C)C(=O)c1cn(Cc2cncn2CC2CCN(C(=O)OCC=C(C)C)CC2)cc1-c1cccc2ccccc12
2. COCCN(C)C(=O)c1cn(Cc2cncn2CC2CCN(C(=O)COc3ccccc3)CC2)cc1-c1cccc2ccccc12

Marked response:
1: 1 to 10 µM; 2: 1 to 50 µM

Sourced from patent US6436960B1
